# experimental.target: T1, human PVRIG-mFc protein (Acro, PVG-H5253) (human, UniProt Q6DKI7 41-171, limits assumed)
# T1 construct: extracellular domain; Bought protein; also called PVRIG-ECD-mFc; not shown: mouse Fc tag of the bought protein
# T1 sequence (looked up): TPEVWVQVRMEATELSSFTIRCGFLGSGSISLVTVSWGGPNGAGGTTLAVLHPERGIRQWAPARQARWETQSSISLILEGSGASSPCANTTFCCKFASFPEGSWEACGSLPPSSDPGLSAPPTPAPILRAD
# assay.notes: FACS blocking of PVRIG-mFc binding to CHO-K1-CD112 cells; competitor CD112
Known % IC50 to parental Ab of a selection of binders
reported.property: % IC50 to parental Ab

binder	data.value
PVRIG-A105-H2 (Fc fusion, VHH-human IgG1 Fc format is stated for the parental VHH antibodies; not restated for the humanized variants; also called A105 VH2; not shown: human IgG1 hinge-CH2-CH3 (Fc)) EVQLVESGGGLVQPGGSLRLSCAASGRTFDRHTMTWFRQAPGKEREFVATASRIPGDTYYVDSVKGRFTISRDNAKNSLYLQMNSLRAEDTAVYYCAATSAYCSEVDCYEKGSWYDNWGQGTMVTVSS	104%
PVRIG-A50-H1 (Fc fusion, VHH-human IgG1 Fc format is stated for the parental VHH antibodies; not restated for the humanized variants; also called A50.VH1; not shown: human IgG1 hinge-CH2-CH3 (Fc)) EVQLVESGGGLVQPGGSLRLSCAASGFTFSYYDMSWVRQAPGKGLEWVSTINSNGGRTSYVDSVKGRFTISRDNSKNTLYLQMNSLRAEDTAVYYCVEGDPHNFGLENLSLRDFGSWGQGTMVTVSS	86.1%
PVRIG-A118-H1 (Fc fusion, VHH-human IgG1 Fc format is stated for the parental VHH antibodies; not restated for the humanized variants; also called A118.VH1; not shown: human IgG1 hinge-CH2-CH3 (Fc)) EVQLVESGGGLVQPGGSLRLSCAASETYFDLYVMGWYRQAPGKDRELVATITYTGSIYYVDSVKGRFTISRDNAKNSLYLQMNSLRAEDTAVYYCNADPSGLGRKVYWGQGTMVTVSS	100%
PVRIG-A105-H4 (Fc fusion, VHH-human IgG1 Fc format is stated for the parental VHH antibodies; not restated for the humanized variants; also called A105.VH4; not shown: human IgG1 hinge-CH2-CH3 (Fc)) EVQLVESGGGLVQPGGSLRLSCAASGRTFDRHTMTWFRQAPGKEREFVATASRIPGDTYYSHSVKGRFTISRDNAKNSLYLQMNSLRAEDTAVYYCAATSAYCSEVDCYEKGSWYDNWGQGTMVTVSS	105%
